Numbers sourced from patent US20230091225A1.

Items are presented alongside their recorded DC50.
Target: androgen receptor (AR) (Homo sapiens, UniProt P10275)
Sequence (P10275 whole entry): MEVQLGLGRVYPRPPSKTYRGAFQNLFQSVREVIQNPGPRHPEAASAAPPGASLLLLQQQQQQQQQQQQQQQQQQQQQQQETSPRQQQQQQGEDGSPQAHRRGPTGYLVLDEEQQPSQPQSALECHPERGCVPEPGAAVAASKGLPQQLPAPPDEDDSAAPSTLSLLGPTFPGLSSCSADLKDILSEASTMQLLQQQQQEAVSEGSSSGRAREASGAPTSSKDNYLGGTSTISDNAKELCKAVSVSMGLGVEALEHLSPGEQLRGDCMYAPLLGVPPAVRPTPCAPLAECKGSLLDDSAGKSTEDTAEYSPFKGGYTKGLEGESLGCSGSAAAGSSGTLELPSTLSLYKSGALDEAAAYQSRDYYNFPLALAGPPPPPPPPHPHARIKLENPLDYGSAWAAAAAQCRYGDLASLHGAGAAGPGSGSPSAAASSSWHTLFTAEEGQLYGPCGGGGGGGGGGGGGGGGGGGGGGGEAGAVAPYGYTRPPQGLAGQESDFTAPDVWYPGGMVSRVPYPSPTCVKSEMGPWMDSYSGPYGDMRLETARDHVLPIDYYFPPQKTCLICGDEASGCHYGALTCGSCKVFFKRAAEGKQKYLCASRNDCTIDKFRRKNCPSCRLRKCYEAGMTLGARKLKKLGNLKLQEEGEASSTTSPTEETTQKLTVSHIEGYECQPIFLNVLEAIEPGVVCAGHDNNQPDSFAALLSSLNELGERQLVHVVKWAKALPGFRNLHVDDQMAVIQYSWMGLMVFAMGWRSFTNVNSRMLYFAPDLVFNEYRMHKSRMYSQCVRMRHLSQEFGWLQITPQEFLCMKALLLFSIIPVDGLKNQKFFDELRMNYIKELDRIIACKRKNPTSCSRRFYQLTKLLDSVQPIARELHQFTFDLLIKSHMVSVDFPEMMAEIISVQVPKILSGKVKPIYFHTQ
Method Summary: Degradation of androgen receptor (AR) protein in VCaP cells by ELISA
Format: cell-based
Protocol Conditions: read-out: DC50

For orientation, consider the following solved cases.
CC1(C)C(Oc2ccc(C#N)c(Cl)c2)C(C)(C)C1N1Cc2nc(C#CC3CCC(N4CC5CN(c6ccc7c(c6)C(=O)N([C@@H]6CCC(=O)NC6=O)C7=O)CC5C4)CC3)ccc2C1=O (some centres unmarked) : 0.01 to 0.1 µM
N#Cc1ccc(OC2CCC(NC(=O)c3ccc(N4CCC5(CC4)CN(CC4CCN(c6cc7c(cc6F)C(=O)N(C6CCC(=O)NC6=O)C7=O)CC4)C5)nn3)CC2)cc1C(F)(F)F (centres unmarked) : < 0.01 µM
N#Cc1ccc(O[C@H]2CC[C@H](NC(=O)c3cnc(N4CCC(CN5CCC6(CC5)CN(c5ccc7c(c5)C(=O)N(C5CCC(=O)NC5=O)C7=O)C6)CC4)nn3)CC2)cc1Br (some centres unmarked) : < 0.01 µM
CC1(C)C(NC(=O)c2ccc(N3CCC(N4CC5(CCN(c6cc7c(cc6F)C(=O)N(C6CCC(=O)NC6=O)C7=O)CC5)C4)CC3)nn2)C(C)(C)C1Oc1ccc(C#N)c(Cl)c1 (centres unmarked) : 0.01 to 0.1 µM

Report measured DC50; entry is N#Cc1ccc(OC2CCC(NC(=O)c3cn(C4CCC(CN5CCC6(CC5)CN(c5ccc7c(c5)C(=O)N(C5CCC(=O)NC5=O)C7=O)C6)CC4)cn3)CC2)cc1Cl (centres unmarked)
< 0.01 µM
